molecular target: PDGFRB(DKIN) (PDGFR-β) (Homo sapiens); construct: PDGFRB(DKIN); test: Phage-display competitive binding assay, PDGFRB(DKIN); conditions: T7 phage displaying human PDGFR-β, DKIN construct; read-out: Binding Assay: PDGFRB(DKIN)
pKd: −log10 of the molar value.
Here the recorded pKd is given for each entry.

{"columns": ["molecular-string", "pKd"],
 "data": [
  ["Cn1nc(C(C)(C)C)cc1C(=O)Nc1ccc(NC(=O)Nc2cc(C(C)(C)C)on2)cc1", "6.00 to 7.00"],
  ["Cn1nc(C2CC2)cc1NC(=O)Nc1ccc(OCc2ccccc2)cc1", "< 5.00"],
  ["CC(C)(C)c1cc(NC(=O)Nc2ccc(OCC3CCC3)cc2)no1", "> 7.00"],
  ["CC(C)Oc1ccc(NC(=O)Nc2cc(C(C)(C)C)no2)cc1", "> 7.00"],
  ["CC(C)(C)c1cc(NC(=O)Nc2ccc(NC(=O)c3ccc4ncccc4c3)cc2)no1", "> 7.00"],
  ["CC(C)(C)c1cc(NC(=O)Nc2ccc(NC(=O)c3c4ccccc4nc4ccccc34)cc2)no1", "5.00 to 6.00"],
  ["CC(C)(C)c1cc(NC(=O)Nc2ccc3c(c2)OCO3)no1", "5.00 to 6.00"]
]}
